System Name: Gelatinase
Procedure Summary: MMP inhibition by particle concentration fluorescence technique (gelatinase)
Protocol Conditions: pH 7.5; 15 min enzyme preincubation; substrate 1-3 h at room temperature; read-out: MMP Inhibition Constants, Gelatinase Ki
pKi: −log10 of the molar value.
Test Readout: pKi

• CNC(=O)[C@H](Cc1ccccc1)N1CC[C@@](CC(C)C)([C@@H](CCN2C(=O)c3ccccc3C2=O)C(=O)NO)C1=O (relative stereo) = 6.01

(a) COc1ccc(S(=O)(=O)NC[C@H](C(=O)NO)[C@]2(CC(C)C)CCN(CCc3ccccc3)C2=O)cc1 (relative stereo)
(b) CC(C)C[C@@]1([C@@H](CCN2C(=O)c3c(F)ccc(F)c3C2=O)C(=O)NO)CCN(CCc2ccccc2)C1=O (relative stereo)
Exercise: Please tell me which of the two, a or b , has the higher reported pKi value. In your reply, give the label of the chosen option.
Key: b
